The reported numbers originate from the supplement of paper PMC6897291.

# Test system: RIVA
# experiment summary: growth inhibition by drug plus 177Lu-lilotomab satetraxetan (1 - RLU/untreated control) (fraction); higher = stronger inhibition
# condition details: 10 nM; time (day): 4; 177Lu-lilotomab satetraxetan 0.5 ug/ml
Structures can show the parent of a compound that is named as a salt.
endpoint name: growth inhibition by drug plus 177Lu-lilotomab satetraxetan

{"columns": ["compound", "endpoint value"],
 "data": [
  ["OCCn1cc(-c2cnc3nnn(Cc4ccc5ncccc5c4)c3n2)cn1", 0.575],
  ["N#CC1(c2ccc(NC(=O)c3cccnc3NCc3ccncc3)cc2)CCCC1", 0.579],
  ["Cc1ccc(-c2csc3ncnc(SCCC(=O)O)c23)cc1", 0.495],
  ["O=C(O)C1(C(=O)O)CCC1.[NH2-].[NH2-].[Pt+2]", 0.519],
  ["CN(C)CCOc1ccc(/C(=C(/CCCl)c2ccccc2)c2ccccc2)cc1 [Toremifene Citrate (Fareston, Acapodene)]", 0.722],
  ["CCC(C)(C)C(=O)O[C@H]1C[C@@H](C)C=C2C=C[C@H](C)[C@H](CC[C@@H]3C[C@@H](O)CC(=O)O3)[C@H]21 [Simvastatin (Zocor)]", 0.554],
  ["COc1cc2ncnc(Nc3ccc(Oc4ccccc4)cc3)c2cc1OC", 0.598],
  ["COc1cc2nccc(Oc3ccc(NC(=O)C4(C(=O)Nc5ccc(F)cc5)CC4)cc3)c2cc1OC [XL-184 free base (Cabozantinib)]", 0.613]
]}
